Recorded values, source ChEMBL document CHEMBL1156245.

- Test Target: Complement factor B (Homo sapiens, UniProt P00751)
- Sequence (P00751 whole entry, the tested form may be a part): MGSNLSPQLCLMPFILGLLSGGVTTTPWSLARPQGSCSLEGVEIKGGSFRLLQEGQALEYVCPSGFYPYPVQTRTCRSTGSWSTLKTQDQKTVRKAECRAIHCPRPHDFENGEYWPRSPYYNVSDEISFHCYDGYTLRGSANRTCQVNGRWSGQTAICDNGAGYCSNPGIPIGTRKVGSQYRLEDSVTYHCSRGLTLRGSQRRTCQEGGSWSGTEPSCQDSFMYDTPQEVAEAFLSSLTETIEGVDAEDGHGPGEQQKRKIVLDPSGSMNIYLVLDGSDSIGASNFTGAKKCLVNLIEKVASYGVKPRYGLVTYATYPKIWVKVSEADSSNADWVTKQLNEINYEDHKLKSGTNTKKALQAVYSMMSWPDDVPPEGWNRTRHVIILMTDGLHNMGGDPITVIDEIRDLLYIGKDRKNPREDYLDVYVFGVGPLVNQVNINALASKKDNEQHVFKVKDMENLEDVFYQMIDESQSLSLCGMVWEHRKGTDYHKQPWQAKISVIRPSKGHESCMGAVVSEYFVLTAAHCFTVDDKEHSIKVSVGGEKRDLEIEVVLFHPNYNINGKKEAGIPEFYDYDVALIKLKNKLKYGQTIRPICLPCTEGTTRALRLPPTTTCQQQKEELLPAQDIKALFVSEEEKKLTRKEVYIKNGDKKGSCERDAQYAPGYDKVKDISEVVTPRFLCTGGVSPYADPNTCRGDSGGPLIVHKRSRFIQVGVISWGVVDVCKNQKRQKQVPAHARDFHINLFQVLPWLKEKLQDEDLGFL
- Test Summary: Inhibition of human complement factor B treated for 5 mins before addition of substrate Ac-SHLGLAR-pNA at pH 9.5 by chromogenic assay
pIC50: −log10 of the molar value.
Quantity Kind: pIC50

> print(dat)
       substance  measurement
1  Ac-FHLGLAR-OH         4.64
2  Ac-SHLLLAR-OH         5.40

(P) Ac-SHLGLAR-OH
(Q) Ac-RLLLAR-OH
(R) Ac-HLLLAR-OH
(S) Ac-RLLLGR-OH
Prompt: Which order do these items take when sorted by rising pIC50? List them. Lab note: final answer is the ordered label list.
Response: P, S, R, Q
(P: 4.72, S: 5.15, R: 5.52, Q: 6.22)

* * *

- Test Target: Complement factor B (Homo sapiens)
- Test Summary: Inhibition of human C3 convertase assessed as inhibition of C3a and C3b fragment production at pH 7.4 after 30 mins by SDS-PAGE
Quantity Kind: IC50 (µM)
Express the result in µM but write the number alone.

Prompt: API: value(readout= IC50, system= Complement factor B (Homo sapiens), query= Ac-RLLLAR-OH )
Response: 50

* * *

- Test Target: Complement factor B (Homo sapiens)
- Test Summary: Inhibition of human complement factor B treated for 5 mins before addition of substrate Ac-SHLGLAR-pNA at pH 9.5 by chromogenic assay
Peptide text beside a SMILES is read from it.
Quantity Kind: IC50 (µM)

Here are 3 compounds together with their reported answers.
Compound	Test Target	Readout Unit	IC50
CC(=O)N[C@@H](Cc1ccc(F)cc1)C(=O)N[C@@H](Cc1cnc[nH]1)C(=O)N[C@@H](CC(C)C)C(=O)NCC(=O)N[C@@H](CC(C)C)C(=O)N[C@@H](C)C(=O)N[C@@H](CCCN=C(N)N)C(=O)O (HELM PEPTIDE1{[ac].[O=C([C@H](Cc1ccc(F)cc1)N[*:1])[*:2]].H.L.G.L.A.R}$$$$V2.0)	Complement factor B (Homo sapiens)	µM	13
CC(=O)N[C@@H](CCCNC(=N)N)C(=O)N[C@@H](CC(C)C)C(=O)N[C@@H](CC(C)(C)C)C(=O)N[C@@H](CC(C)C)C(=O)N[C@@H](C)C(=O)N[C@@H](CCCNC(=N)N)C(=O)O (HELM PEPTIDE1{[ac].R.L.[CC(C)(C)C[C@H](N[*:1])C(=O)[*:2]].L.A.R}$$$$V2.0)	Complement factor B (Homo sapiens)	µM	0.25
CC(C)C[C@H](NC(=O)[C@H](CCC1CCCCC1)NC(=O)[C@H](CC(C)C)NC(=O)[C@H](Cc1cnc[nH]1)NC(=O)[C@@H](N)CO)C(=O)N[C@@H](C)C(=O)N[C@@H](CCCN=C(N)N)C(=O)O (HELM PEPTIDE1{S.H.L.[O=C([C@H](CCC1CCCCC1)N[*:1])[*:2]].L.A.R}$$$$V2.0)	Complement factor B (Homo sapiens)	µM	5

(I) CCCC[C@H](NC(=O)[C@H](Cc1cnc[nH]1)NC(=O)[C@H](CO)NC(C)=O)C(=O)N[C@@H](CC(C)C)C(=O)N[C@@H](CC(C)C)C(=O)N[C@@H](C)C(=O)N[C@@H](CCCNC(=N)N)C(=O)O (HELM PEPTIDE1{[ac].S.H.[Nle].L.L.A.R}$$$$V2.0)
(II) CC(=O)N[C@@H](CC(C)C)C(=O)N[C@@H](CC(C)C)C(=O)N[C@@H](C)C(=O)N[C@@H](CCCN=C(N)N)C(=O)O (Ac-LLAR-OH)
Prompt: Identify the entry with the larger IC50. Options: I and II Respond using the label that marks the chosen record.
Response: II

* * *

- Test Summary: Inhibition of cobra C3/C5 convertase assessed as inhibition of C3a and C5a fragment formation
- Parameters: species or system Naja naja
Quantity Kind: pIC50
// pIC50: -log10(molar conc.)

Prompt: Name the reported pIC50 value associated with the compound N=C(N)Nc1ccc(C(=O)Oc2ccc3cc(C(=N)N)ccc3c2)cc1
Response: 5.40
